# Test system: ICS
# experiment.summary: qHTS profiling for inhibitors of Plasmodium falciparum proliferation (AID 504749); also: nearly all actives have a fitted effect of over 60% in size
# experimental.context: P. falciparum in erythrocytes, SYBR Green DNA, 72 h; series mostly up to 12.8 µM
Records with an inconclusive call do not appear. Active and inactive are the calls of the source. Calls follow the shape of the dose curve; as a rule, active = well fitted inhibition curve with a large enough effect; inconclusive = small, poorly fitted or top-dose-only effect; inactive = flat fitted curve, though single readings scatter.
Labels: yes for active, no for inactive

compound | answer.label
COc1ccc([C@@H]2CC(=O)c3c(O)cc(O[C@H]4O[C@@H](CO[C@H]5O[C@@H](C)[C@@H](O)[C@@H](O)[C@@H]5O)[C@@H](O)[C@@H](O)[C@@H]4O)cc3O2)cc1O | no
COC1OC(CO)C(OC2OC(C(=O)O)C(OC3OC(COS(=O)(=O)O)C(OC4OC(C(=O)O)C(OC5OC(CO)C(OC6OC(C(=O)O)C(OC7OC(COS(=O)(=O)O)C(OC8OC(C(=O)O)=C[C@H](O)C8OS(=O)(=O)O)C(O)C7NC(C)=O)[C@@H](O)C6O)C(O)C5NC(C)=O)[C@@H](O)C4O)C(O)C3NC(C)=O)[C@@H](O)C2O)C(O)C1NC(C)=O (some centres not stated) | yes
OCC1OC(n2cnc3c(=S)nc[nH]c32)C(O)C1O (configuration not stated) | no
Clc1ccc([C@H](Cn2ccnc2)OCc2csc3c(Cl)cccc23)c(Cl)c1 | yes
NC(=O)c1cc[n+](CC2=C(C(=O)[O-])N3C(=O)[C@@H](NC(=O)Cc4cccs4)[C@@H]3SC2)cc1 | no
C[C@H](Oc1ccccc1)C(=O)N[C@@H]1C(=O)N2[C@@H]1SC(C)(C)[C@@H]2C(=O)O | no
NC(CCC(=O)N[C@@H](CS)C(=O)NCC(=O)O)C(=O)O (some centres not stated) | yes
CC[C@H]1NC(=O)c2cc(S(N)(=O)=O)c(Cl)cc2N1 | no
CCc1c(C)[nH]c2c1C(=O)[C@H](CN1CCOCC1)CC2 | no
CCOC(=O)[C@H](CCc1ccccc1)N[C@@H](C)C(=O)N1[C@H](C(=O)O)C[C@H]2CCC[C@@H]21 | no
N[C@@H]1C(O)OC(CO)C(O)C1O (some centres not stated) | no
CN1CC(=O)N=C1N | no
CC(C)=CCC[C@](C)(O)C1CC=C(C)CC1 (some centres not stated) | no
C=CCN1C(=CCO)[C@H]2C[C@H]3[C@@H]1CC[C@@]31c3ccccc3N3C=C4[C@@H]5N(/C=C/2[C@H]31)c1ccccc1[C@]51CC[C@H]2[C@H]1C[C@@H]4/C(=C/CO)N2CC=C | no
CC(=O)OCC(=O)[C@@]12OC3(CCCC3)OC1CC1C3CCC4=CC(=O)C=C[C@@]4(C)[C@]3(F)C(O)C[C@]12C (some centres not stated) | yes
C[C@@H]1C[C@H]2[C@@H]3C[C@H](F)C4=CC(=O)C=C[C@@]4(C)[C@]3(F)[C@H](O)C[C@]2(C)[C@@]1(O)C(=O)CO | no
CC(=O)OCC(=O)[C@@]12OC(C)(C)O[C@@H]1C[C@H]1[C@H]3C[C@H](F)C4=CC(=O)C=C[C@@]4(C)[C@]3(F)[C@H](O)C[C@@]12C | no
CC(C)NC[C@H]1CCc2cc(CO)c([N+](=O)[O-])cc2N1 | no
C[C@]12C=CC(=O)C=C1CCC1C2C(O)C[C@]2(C)C1CC[C@]2(O)C(=O)CO (some centres not stated) | no
O=C(N/N=C\c1ccc([N+](=O)[O-])o1)c1ccc(O)cc1 | yes
NS(=O)(=O)c1cc2c(cc1Cl)N[C@@H](C(Cl)Cl)NS2(=O)=O | no
CCC(=O)O[C@@]1(C(=O)CCl)C(C)CC2C3CCC4=CC(=O)C=C[C@@]4(C)[C@]3(F)C(O)C[C@]21C (some centres not stated) | yes
